The measured values listed here are drawn from patent US20200262913A1.

# kon listing for each entry below
assay-target: T1, recombinant human IL-31 (hIL-31, BHK produced, A1277F, zcytor17lig CEE) (human, UniProt Q6EBC2 24-164)
T1 construct: also called recombinant hIL-31
T1 sequence: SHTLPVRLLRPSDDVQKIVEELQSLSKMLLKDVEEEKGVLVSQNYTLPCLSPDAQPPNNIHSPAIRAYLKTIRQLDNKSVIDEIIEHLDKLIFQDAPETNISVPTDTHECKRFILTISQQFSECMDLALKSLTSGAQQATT
method-summary: SPR (Biacore), mAb amine-coupled to CM5 chip, hIL-31 injected
Numeric only. Scale: M⁻¹ s⁻¹

- binder: "humanized 292.12.3.1 construct clone 27 (12VH1-gly + HC(F29L, M69L, R94F) + LC(F71Y)) (antibody, human IgG4, V domains shown) VH: QVQLVQSGAEVKKPGASVKVSCKASGYTLTRYWMQWVRQAPGQGLEWMGAIYPGDGDTRYSQKFQGRVTLTRDTSISTVYMELSSLRSEDTAVYYCAFPDGYYAAPYGMDYWGQGTLVTVSS VL: DIQMTQSPSSLSASVGDRVTITCRASGNIHNYLAWYQQKPGKVPKLLIYNAKTLADGVPSRFSGSGSGTDYTLTISSLQPEDVATYYCQHFWSTPWTFGQGTKVEIKR"
  kon [M⁻¹ s⁻¹]: 98000

Query: Need kon of humanized 292.12.3.1 construct clone 18 (12VH1-gly + HC(fback) + LC(G66R, G68E, F71Y)) (antibody, human IgG4, V domains shown) VH: QVQLVQSGAEVKKPGASVKVSCKASGYTLTRYWMQWVRQAPGQGLEWMGAIYPGDGDTRYSQKFQGRVTLTADKSISTAYMELSSLRSEDTAVYYCAFPDGYYAAPYGMDYWGQGTLVTVSS VL: DIQMTQSPSSLSASVGDRVTITCRASGNIHNYLAWYQQKPGKVPKLLIYNAKTLADGVPSRFSGSRSETDYTLTISSLQPEDVATYYCQHFWSTPWTFGQGTKVEIKR , thanks.
Reply: 55000

Query: Also humanized 292.12.3.1 construct clone 36 (12VH1(germ)-gly + HC(F29L, T73K, R94F) + LC(F71Y)) (antibody, human IgG4, V domains shown) VH: QVQLVQSGAEVKKPGASVKVSCKASGYTLTRYWMQWVRQAPGQGLEWMGAIYPGDGDTRYSQKFQGRVTMTRDKSTSTVYMELSSLRSEDTAVYYCAFPDGYYAAPYGMDYWGQGTLVTVSS VL: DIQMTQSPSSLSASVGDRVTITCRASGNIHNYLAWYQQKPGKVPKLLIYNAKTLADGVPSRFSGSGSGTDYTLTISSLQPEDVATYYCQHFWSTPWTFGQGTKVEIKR ?
Reply: 68000

Query: Also humanized 292.12.3.1 construct clone 31 (12VH1-gly + HC(F29L, M69L, R71A, V78A, R94F) + LC(F71Y)) (antibody, human IgG4, V domains shown) VH: QVQLVQSGAEVKKPGASVKVSCKASGYTLTRYWMQWVRQAPGQGLEWMGAIYPGDGDTRYSQKFQGRVTLTADTSISTAYMELSSLRSEDTAVYYCAFPDGYYAAPYGMDYWGQGTLVTVSS VL: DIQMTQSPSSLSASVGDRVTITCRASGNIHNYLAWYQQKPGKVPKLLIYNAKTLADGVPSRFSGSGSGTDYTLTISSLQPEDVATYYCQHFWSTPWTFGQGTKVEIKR ?
Reply: 92000

Query: Also humanized 292.12.3.1 construct clone 26 (12VH1-gly + HC(fback) + LC(F71Y)) (antibody, human IgG4, V domains shown) VH: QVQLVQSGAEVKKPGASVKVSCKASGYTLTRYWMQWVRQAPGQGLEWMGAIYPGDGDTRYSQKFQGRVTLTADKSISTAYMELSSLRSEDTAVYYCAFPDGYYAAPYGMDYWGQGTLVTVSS VL: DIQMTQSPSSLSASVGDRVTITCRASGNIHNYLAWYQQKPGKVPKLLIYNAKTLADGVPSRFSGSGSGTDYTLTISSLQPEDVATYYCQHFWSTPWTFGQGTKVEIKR ?
Reply: 100000

Query: Also humanized 292.12.3.1 construct clone 30 (12VH1-gly + HC(F29L, V78A, R94F) + LC(F71Y)) (antibody, human IgG4, V domains shown) VH: QVQLVQSGAEVKKPGASVKVSCKASGYTLTRYWMQWVRQAPGQGLEWMGAIYPGDGDTRYSQKFQGRVTMTRDTSISTAYMELSSLRSEDTAVYYCAFPDGYYAAPYGMDYWGQGTLVTVSS VL: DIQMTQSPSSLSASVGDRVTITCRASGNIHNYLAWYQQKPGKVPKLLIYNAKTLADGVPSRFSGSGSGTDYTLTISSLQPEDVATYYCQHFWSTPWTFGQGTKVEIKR ?
Reply: 78000

Query: Also humanized 292.12.3.1 construct clone 22 (12VH5-gly + HC(fback) + LC(G66R, G68E, D70Q, T72S)) (antibody, human IgG4, V domains shown) VH: EVQLVQSGAEVKKPGESLKISCKASGYTLTRYWMQWVRQMPGKGLEWMGAIYPGDGDTRYSPSFQGQVTLTADKSISTAYLQWSSLKASDTAMYYCAFPDGYYAAPYGMDYWGQGTTVTVSS VL: DIQMTQSPSSLSASVGDRVTITCRASGNIHNYLAWYQQKPGKVPKLLIYNAKTLADGVPSRFSGSRSETQFSLTISSLQPEDVATYYCQHFWSTPWTFGQGTKVEIKR ?
Reply: 67000

Query: Also humanized 292.12.3.1 construct clone 28 (12VH1-gly + HC(F29L, R71A, R94F) + LC(F71Y)) (antibody, human IgG4, V domains shown) VH: QVQLVQSGAEVKKPGASVKVSCKASGYTLTRYWMQWVRQAPGQGLEWMGAIYPGDGDTRYSQKFQGRVTMTADTSISTVYMELSSLRSEDTAVYYCAFPDGYYAAPYGMDYWGQGTLVTVSS VL: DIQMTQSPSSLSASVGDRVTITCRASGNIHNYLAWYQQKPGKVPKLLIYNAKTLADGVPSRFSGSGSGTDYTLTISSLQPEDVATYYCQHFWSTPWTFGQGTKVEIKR ?
Reply: 120000

Query: Also humanized 292.12.3.1 construct clone 35 (12VH1-gly + HC(F29L, R94F)) (antibody, human IgG4, V domains shown) VH: QVQLVQSGAEVKKPGASVKVSCKASGYTLTRYWMQWVRQAPGQGLEWMGAIYPGDGDTRYSQKFQGRVTMTRDTSISTVYMELSSLRSEDTAVYYCAFPDGYYAAPYGMDYWGQGTLVTVSS VL: DIQMTQSPSSLSASVGDRVTITCRASGNIHNYLAWYQQKPGKVPKLLIYNAKTLADGVPSRFSGSGSGTDFTLTISSLQPEDVATYYCQHFWSTPWTFGQGTKVEIKR ?
Reply: 64000

Query: Also humanized 292.12.3.1 construct clone 33 (12VH1(germ)-gly + fback) (antibody, human IgG4, V domains shown) VH: QVQLVQSGAEVKKPGASVKVSCKASGYTLTRYWMQWVRQAPGQGLEWMGAIYPGDGDTRYSQKFQGRVTLTADKSTSTAYMELSSLRSEDTAVYYCAFPDGYYAAPYGMDYWGQGTLVTVSS VL: DIQMTQSPSSLSASVGDRVTITCRASGNIHNYLAWYQQKPGKVPKLLIYNAKTLADGVPSRFSGSRSETQYSLTISSLQPEDVATYYCQHFWSTPWTFGQGTKVEIKR ?
Reply: 52000
